# Tested on: blackgrass
# ASSAY_METHOD_TEXT: Test A postemergence herbicide test
# Format: in vivo, Alopecurus myosuroides
# TEST_SETTINGS: 500 g ai/ha, 0 to 100 scale (0 no effect, 100 complete control)
MEASURED_ENDPOINT: Plant response rating, Blackgrass

| MOLECULE | OBS_VALUE |
| --- | --- |
| Cc1cccc(NC(=O)C2C(=O)NCC2c2cccc(C(F)(F)F)c2)c1 (centres unmarked) [Compound 317] | 20 |
| O=C1NCC(c2cccc(Oc3ccccc3)c2)C1C(=O)Nc1ccccc1Cl (centres unmarked) [Compound 334] | 0 |
| O=C1NCC(c2cccc(Br)c2)C1C(=O)Nc1cccc(F)c1F (centres unmarked) [Compound 309] | 70 |
| O=C1NCC(c2cccc(C(F)(F)F)c2)C1C(=O)Nc1cccc(C(F)(F)F)c1 (centres unmarked) [Compound 313] | 0 |
| O=C1NCC(c2cccc(Oc3ccccc3)c2)C1C(=O)Nc1ccccc1F (centres unmarked) [Compound 330] | 0 |

---

# System: barnyardgrass
# ASSAY_METHOD_TEXT: Test A pre-/postemergence herbicide test
# Format: in vivo, Echinochloa crus-galli
# TEST_SETTINGS: Preemergence, 500 g ai/ha; visual rating on 0 to 100 scale (0 no effect, 100 complete control)
Each entry below carries its reported Barnyardgrass plant response rating.

| MOLECULE | Barnyardgrass plant response rating |
| --- | --- |
| O=C1NCC(c2cccc(-n3cccn3)c2)C1C(=O)Nc1cccc(F)c1F (centres unmarked) [Compound 337] | 20 |
| O=C1NCC(c2ccc(OC(F)F)cc2)C1C(=O)Nc1ccccc1F (centres unmarked) [Compound 349] | 90 |
| O=C1NCC(c2cccc(Br)c2)C1C(=O)Nc1ccc(F)cc1F (centres unmarked) [Compound 308] | 80 |
| O=C1NCC(c2cccc(Oc3ccccc3)c2)C1C(=O)Nc1ccc(F)c(F)c1F (centres unmarked) [Compound 333] | 90 |
| O=C1NCC(c2cccc(Oc3ccccc3)c2)C1C(=O)Nc1cccc(F)c1F (centres unmarked) [Compound 332] | 80 |
| CN1CC(c2ccc(F)c(F)c2)C(C(=O)Nc2ccccc2F)C1=O (centres unmarked) [Compound 302] | 90 |
| O=C1NCC(c2cccc(C(F)(F)F)c2)C1C(=O)Nc1ccc(F)c(F)c1F (centres unmarked) [Compound 315] | 90 |
| CC1(c2ccccc2)CNC(=O)C1C(=O)Nc1ccccc1F (centres unmarked) [Compound 301] | 0 |

---

# System: barnyardgrass
# ASSAY_METHOD_TEXT: Test A pre-/postemergence herbicide test
# Format: in vivo, Echinochloa crus-galli
# TEST_SETTINGS: Postemergence, 500 g ai/ha; 0 to 100 scale (0 no effect, 100 complete control)
Each entry below carries its reported Plant response rating, Barnyardgrass.
MEASURED_ENDPOINT: Plant response rating, Barnyardgrass

| COMPOUND | ASSAY_TARGET | MEASURED_ENDPOINT | OBS_VALUE |
| --- | --- | --- | --- |
| O=C1NCC(c2cc(F)cc(F)c2)C1C(=O)Nc1ccc(F)cc1F (racemic) | barnyardgrass | Plant response rating, Barnyardgrass | 90 |
| O=C1NCC(c2ccc(F)cc2)C1C(=O)Nc1ccccc1F (racemic) | barnyardgrass | Plant response rating, Barnyardgrass | 90 |
| O=C1NCC(c2ccc(F)c(F)c2)C1C(=O)Nc1ccccc1Br (centres unmarked) | barnyardgrass | Plant response rating, Barnyardgrass | 90 |
| O=C1NCC(c2ccc(Cl)cc2)C1C(=O)Nc1ccccc1F (racemic) | barnyardgrass | Plant response rating, Barnyardgrass | 80 |
| O=C1NCC(c2cccc(OC(F)(F)F)c2)C1C(=O)Nc1cccc(F)c1F (centres unmarked) | barnyardgrass | Plant response rating, Barnyardgrass | 80 |
